As shown below, each of these compounds has a reported inhibition at 1 µM value.
Biological target: Human Recombinant Matriptase 2 (Homo sapiens, UniProt Q8IU80)
Construct: purchased Enzo Life Sciences (an in-house preparation was also used) ALX-201-752-1
Sequence (Q8IU80 1-811): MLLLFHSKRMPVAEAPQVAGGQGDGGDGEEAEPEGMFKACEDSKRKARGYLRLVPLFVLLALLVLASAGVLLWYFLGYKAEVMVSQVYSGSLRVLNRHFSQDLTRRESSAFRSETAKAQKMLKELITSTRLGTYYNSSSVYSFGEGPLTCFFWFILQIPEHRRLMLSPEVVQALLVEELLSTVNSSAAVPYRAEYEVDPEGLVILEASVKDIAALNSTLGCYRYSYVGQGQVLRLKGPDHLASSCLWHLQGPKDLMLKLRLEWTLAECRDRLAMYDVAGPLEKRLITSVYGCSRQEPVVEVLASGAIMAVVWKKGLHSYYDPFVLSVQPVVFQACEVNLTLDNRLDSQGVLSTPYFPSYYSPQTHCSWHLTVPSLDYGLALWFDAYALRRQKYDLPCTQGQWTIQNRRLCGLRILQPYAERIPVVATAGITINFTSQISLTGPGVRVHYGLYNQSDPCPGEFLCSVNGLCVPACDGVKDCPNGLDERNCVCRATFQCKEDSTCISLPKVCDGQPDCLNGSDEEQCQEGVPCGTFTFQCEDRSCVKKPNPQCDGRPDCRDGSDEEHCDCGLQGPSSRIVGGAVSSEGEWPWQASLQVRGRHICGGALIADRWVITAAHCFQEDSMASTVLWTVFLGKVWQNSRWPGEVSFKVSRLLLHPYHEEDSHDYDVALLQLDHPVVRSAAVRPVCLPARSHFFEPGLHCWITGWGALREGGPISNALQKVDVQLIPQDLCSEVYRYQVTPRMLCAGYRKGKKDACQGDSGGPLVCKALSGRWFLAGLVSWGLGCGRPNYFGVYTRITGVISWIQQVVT
Experiment: Matriptase 2 fluorescence based inhibition assay, Method B (50 mM TRIS pH 7.5, 150 mM NaCl, 0.01% gelatin)
Format: biochemical
Details: 1 uM compound; Assay Used = B (Method B); read-out: Mar-2 % inhibition at 1 uM
property_name: inhibition at 1 µM

smiles_text	reported_measurement
N=C(N)c1ccc2cc(C(=O)O)n(Cc3cccc4ccccc34)c2n1	75 to 100%
N=C(N)c1ccc2cc(C(=O)O)n(Cc3cc(OC(F)F)cc4ccccc34)c2c1	50 to 75%
CC(C)(C)Sc1cccc2c(Cn3c(C(=O)N[C@H]4CC[C@H](N)CC4)cc4ccc(C(=N)N)cc43)cccc12	75 to 100%
N=C(N)c1ccc2cc(C(=O)N[C@H]3CC[C@H](N)CC3)n(Cc3ccc(Br)c4ccccc34)c2c1	75 to 100%
N=C(N)c1ccc2cc(C(=O)O)n(Cc3cccc4ccc(Oc5ccccc5)cc34)c2c1	25 to 50%
N=C(N)c1ccc2cc(C(=O)O[C@H]3CC[C@@H](N)CC3)n(Cc3cccc4ccccc34)c2c1	75 to 100%
N=C(N)c1ccc2cc(C(=O)N[C@H]3CC[C@H](N)CC3)n(Cc3cc(Oc4ccccc4)cc4ccccc34)c2n1	75 to 100%

----------
As shown below, each of these compounds has a reported inhibition at 1 µM value.
Target: Human Recombinant Matriptase 2 (Homo sapiens)
Construct: purchased Enzo Life Sciences (an in-house preparation was also used) ALX-201-752-1
Sequence (Q8IU80 1-811): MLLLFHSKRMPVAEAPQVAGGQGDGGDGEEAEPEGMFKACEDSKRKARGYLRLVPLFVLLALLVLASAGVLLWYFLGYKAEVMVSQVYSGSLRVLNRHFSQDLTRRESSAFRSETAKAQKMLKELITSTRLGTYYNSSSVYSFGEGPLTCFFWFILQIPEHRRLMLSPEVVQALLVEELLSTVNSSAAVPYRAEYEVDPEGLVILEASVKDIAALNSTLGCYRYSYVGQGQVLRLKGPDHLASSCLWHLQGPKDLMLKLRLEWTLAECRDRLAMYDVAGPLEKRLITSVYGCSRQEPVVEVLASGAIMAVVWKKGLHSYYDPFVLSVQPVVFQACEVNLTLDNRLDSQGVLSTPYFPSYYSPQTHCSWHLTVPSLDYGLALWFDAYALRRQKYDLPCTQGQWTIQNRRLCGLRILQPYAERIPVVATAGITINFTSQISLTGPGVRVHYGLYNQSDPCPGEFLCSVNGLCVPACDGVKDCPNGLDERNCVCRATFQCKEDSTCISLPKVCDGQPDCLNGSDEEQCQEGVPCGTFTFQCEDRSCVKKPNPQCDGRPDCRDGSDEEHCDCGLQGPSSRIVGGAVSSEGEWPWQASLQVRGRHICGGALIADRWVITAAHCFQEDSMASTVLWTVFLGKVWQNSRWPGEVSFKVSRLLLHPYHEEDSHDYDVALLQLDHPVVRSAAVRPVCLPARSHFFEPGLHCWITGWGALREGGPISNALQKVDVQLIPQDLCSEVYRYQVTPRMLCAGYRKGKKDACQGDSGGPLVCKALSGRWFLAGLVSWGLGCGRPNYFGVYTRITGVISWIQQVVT
Test: Matriptase 2 fluorescence based inhibition assay, Method B (50 mM TRIS pH 7.5, 150 mM NaCl, 0.01% gelatin)
Format: biochemical
Conditions: compound at 1 uM; Assay Used: B; read-out: Mar-2 % inhibition at 1 uM

smiles_text	inhibition at 1 µM
N/C(=N\O)c1ccc2cc(C(=O)O[C@H]3CC[C@H](N)CC3)n(Cc3cccc4ccccc34)c2c1	25 to 50%
CN(C)C(=O)c1ccc(Cn2c(C(=O)N[C@H]3CC[C@H](N)CC3)cc3ccc(C(=N)N)cc32)c2ccccc12	50 to 75%
CN(C)CCCOc1ccc2c(Cn3c(C(=O)O)cc4ccc(C(=N)N)cc43)cccc2c1	50 to 75%

----------
Biological target: Human Recombinant Matriptase 2 (Homo sapiens, UniProt Q8IU80)
Construct: purchased Enzo Life Sciences (an in-house preparation was also used) ALX-201-752-1
Assay: Matriptase 2 fluorescence based inhibition assay, Method B (50 mM TRIS pH 7.5, 150 mM NaCl, 0.01% gelatin)
Format: biochemical
Conditions: 1 uM compound; Assay Used = B (Method B); read-out: Mar-2 % inhibition at 1 uM
Description: Test compounds were evaluated for their potential to inhibit Human Recombinant Matriptase 2 (in-house and commercial protein from Enzo Life Sciences—cat log -ALX-201-752-1) using fluorescence based assay. […] The enzyme and compound preincubated for 30 mins, plate was read 60 mins after substrate addition at wavelength Ex: 360/Em:480 nm. […]
As shown below, each of these compounds has a reported inhibition at 1 µM value.

smiles_text	experimental_target	inhibition at 1 µM
N=C(N)c1ccc2cc(C(=O)N[C@H]3CC[C@H](N)CC3)n(Cc3cccc4c(Oc5ccccc5)cccc34)c2c1	Human Recombinant Matriptase 2 (Homo sapiens, UniProt Q8IU80)	75 to 100%
N=C(N)c1ccc2cc(C(=O)N[C@H]3CC[C@H](N)CC3)n(Cc3cc(Oc4ccsc4)cc4ccccc34)c2c1	Human Recombinant Matriptase 2 (Homo sapiens, UniProt Q8IU80)	75 to 100%
N=C(N)c1ccc2cc(-c3nccs3)n(Cc3cccc4ccccc34)c2c1	Human Recombinant Matriptase 2 (Homo sapiens, UniProt Q8IU80)	50 to 75%
CCOC(=O)c1cc2ccc(C(N)=NO)cc2n1Cc1cc(S(=O)(=O)c2ccccc2)cc2ccccc12	Human Recombinant Matriptase 2 (Homo sapiens, UniProt Q8IU80)	0 to 25%
CCOC(=O)c1cc2ccc(C(=N)N)cc2n1Cc1cccc2ccccc12	Human Recombinant Matriptase 2 (Homo sapiens, UniProt Q8IU80)	50 to 75%
N=C(N)c1ccc2cc(C(=O)N[C@H]3CC[C@H](N)CC3)n(Cc3cc(-c4ccc(Cl)s4)on3)c2c1	Human Recombinant Matriptase 2 (Homo sapiens, UniProt Q8IU80)	50 to 75%
N=C(N)c1ccc2cc(C(=O)NCCN)n(Cc3cc(Oc4ccccc4)cc4ccccc34)c2c1	Human Recombinant Matriptase 2 (Homo sapiens, UniProt Q8IU80)	75 to 100%
NC(=NO)c1ccc2cc(C(=O)O)n(Cc3cc(S(=O)(=O)c4ccccc4)cc4ccccc34)c2c1	Human Recombinant Matriptase 2 (Homo sapiens, UniProt Q8IU80)	0 to 25%
CN(C)C(=O)c1cc2ccc(C(=N)N)cc2n1Cc1cccc2ccccc12	Human Recombinant Matriptase 2 (Homo sapiens, UniProt Q8IU80)	25 to 50%
N=C(N)Nc1ccc2cc(C(=O)N[C@H]3CC[C@H](N)CC3)n(Cc3cccc4ccccc34)c2c1	Human Recombinant Matriptase 2 (Homo sapiens, UniProt Q8IU80)	0 to 25%

----------
Target: Human Recombinant Matriptase 2 (Homo sapiens)
Construct: purchased Enzo Life Sciences (an in-house preparation was also used) ALX-201-752-1
Experiment: Matriptase 2 fluorescence based inhibition assay, Method A (100 mM TRIS pH 9, 1 mg/mL BSA)
Format: biochemical
Conditions: at 1 uM; Assay Used = A; read-out: Mar-2 % inhibition at 1 uM
As shown below, each of these molecules has a reported inhibition at 1 µM value.
property_name: inhibition at 1 µM

molecule	property_name	reported_measurement
N=C(N)c1ccc2cc(C(=O)N3CCC[C@@H](CF)C3)n(Cc3cccc(C(N)=O)c3)c2c1 [Compound I-325]	inhibition at 1 µM	0 to 25%
CC(C)CCn1c(C(=O)N2CCC(F)(F)C2)cc2ccc(C(=N)N)cc21 [Compound I-273]	inhibition at 1 µM	0 to 25%
N=C(N)c1ccc2cc(C(=O)N[C@H]3CC[C@H](N)CC3)n(Cc3cccc(NC(=O)C4CNC4)c3)c2c1 [Compound I-258]	inhibition at 1 µM	50 to 75%
NCCC(=O)Nc1cccc(Cn2c(C(=O)N3CCC(CCN)CC3)cc3ccc(/C(N)=N/O)cc32)c1 [Compound I-381]	inhibition at 1 µM	0 to 25%
CNC(=O)c1ccc(Cn2c(C(=O)NCC3CCCCC3)cc3ccc(C(=N)N)cc32)cc1 [Compound I-215]	inhibition at 1 µM	0 to 25%
N=C(N)c1ccc2cc(C(=O)N3CC[C@H](F)C3)n(Cc3ccc(-c4ccccc4)cc3)c2c1 [Compound I-309]	inhibition at 1 µM	0 to 25%
N=C(N)c1ccc2cc(C(=O)N[C@]34CC5CC(C[C@@](O)(C5)C3)C4)n(Cc3ccc(C(N)=O)cc3)c2c1 [Compound I-198]	inhibition at 1 µM	0 to 25%
N=C(N)c1ccc2cc(C(=O)N3CCC(CF)CC3)n(Cc3ccc(NC(=O)CCN)cc3)c2c1 [Compound I-377]	inhibition at 1 µM	0 to 25%
N=C(N)c1ccc2cc(C(=O)N[C@H]3CC[C@H](N)CC3)n(Cc3ccc(NC(=O)CCN)cc3)c2c1 [Compound I-262]	inhibition at 1 µM	25 to 50%
CCNC(=O)c1ccc(Cn2c(C(=O)N3CCC(F)CC3)cc3ccc(C(=N)N)cc32)cc1 [Compound I-390]	inhibition at 1 µM	0 to 25%
N=C(N)c1ccc2cc(C(=O)N3CCC(F)CC3)n(CCS(=O)(=O)c3ccccc3)c2c1 [Compound I-343]	inhibition at 1 µM	0 to 25%
